# experimental.target: α2β2γ1 GABAA receptor subtype (Homo sapiens (Human), UniProt P47869+Q8N1C3)
# procedure.summary: Two-electrode voltage clamp electrophysiology in Xenopus oocytes expressing GABAA receptors (modulation of GABA EC20 current)
# Format: cell-based
# particulars: % modulation of GABA EC20 = 100*(Fold increase-1); α2β2γ1 oocytes; compound at approx. 30-fold Ki
# Procedure: Xenopus laevis oocytes at maturation stages V-VI were used for the expression of cloned mRNA encoding GABAA receptor subunits. Oocytes ready for RNA micro-injection were bought from Ecocyte, Castrop-Rauxel, Germany and stored in modified Barth's medium (composition in mM: NaCl 88, KCl 1, NaHCO3 2.4, HEPES 10, MgSO4 0.82, CaNO3 0.33, CaCl2 0.33, pH=7.5) at 20° C. until the experiment. […]
parameter: Efficacy (GABA)% (%)

1) COC1CN(C(=O)c2cn3c(n2)CN=C(c2c(F)cccc2F)c2c-3ccc(Cl)c2Cl)C1 : 42
2) C[C@@H]1N=C(c2c(F)cccc2F)c2c(ccc(Cl)c2Cl)-n2nc(CO)nc21 : 59
3) C[C@@H]1N=C(c2c(F)cccc2F)c2c(ccc(C(F)(F)F)c2Cl)-n2nc(C(=O)N3CCS(=O)(=O)CC3)nc21 : 88
4) C[C@@H]1N=C(c2ncccc2F)c2c(ccc(C(F)(F)F)c2Cl)-n2cc(C(=O)NCC3(O)CC3)nc21 : 177
5) C[C@@H]1N=C(c2c(F)cccc2F)c2c(ccc(Cl)c2Cl)-n2nc(N3CC(C#N)C3)nc21 : 69
6) C[C@@H]1N=C(c2c(F)cccc2F)c2c(ccc(Cl)c2Cl)-n2nc(C(=O)NCC(F)F)nc21 : 74
7) Cc1nc2n(n1)-c1ccc(Cl)c(Cl)c1C(c1ncccc1F)=N[C@H]2C : 175
8) Cc1cnc2n1-c1ccc(Cl)c(Cl)c1C(c1c(F)cccc1F)=N[C@H]2C : 35
9) C[C@@H]1N=C(c2c(F)cccc2F)c2c(ccc(C(F)(F)F)c2Cl)-n2nc(C(=O)NN3CCCC3)nc21 : 120
10) C[C@@H]1N=C(c2c(F)cccc2F)c2c(ccc(Cl)c2Cl)-n2nc(N3CC(O)C3)nc21 : 58
11) C[C@@H]1N=C(c2c(F)cccc2F)c2c(ccc(Cl)c2Cl)-n2nc(C(=O)N3CC(OC(F)F)C3)nc21 : 66
12) Cc1nc2n(n1)-c1ccc(Cl)c(Cl)c1C(c1c(F)cccc1F)=NC2 : 26
13) C[C@@H]1N=C(c2c(F)cccc2F)c2c(ccc(C(F)(F)F)c2Cl)-n2cc(CO)nc21 : 71
14) C[C@@H]1N=C(c2c(F)cccc2F)c2c(ccc(Cl)c2Cl)-n2nc(N3CCCC3=O)nc21 : 60
15) C[C@@H]1N=C(c2c(F)cccc2F)c2c(ccc(C(F)(F)F)c2Cl)-n2nc(N3CCOC3=O)nc21 : 52

---

# experimental.target: human GABAA α1β3γ2 receptor (Homo sapiens (Human), UniProt P14867+P18507)
# procedure.summary: Radioligand binding assay for γ2-containing GABAA subtypes, [3H]Flumazenil competition (α1β3γ2)
# particulars: Log[Ki α1β3γ2 (nM)/Ki α2β2γ1 (nM)]
Each entry gets criterion not met if its LogSel stays under 2, and criterion met if its LogSel is 2 or above.

1. Fc1cccc(F)c1C1=NCc2nc(C(F)F)nn2-c2ccc(Cl)c(Cl)c21 : criterion not met
2. O=C(NC1COC1)c1nc2n(n1)-c1ccc(Cl)c(Cl)c1C(c1c(F)cccc1F)=NC2 : criterion met
3. C[C@@H]1N=C(c2ncccc2F)c2c(ccc(C(F)(F)F)c2Cl)-n2nc(C(=O)NCCF)nc21 : criterion met
4. Cc1c(C(=O)NC[C@@H](C)O)nc2n1-c1ccc(C(F)(F)F)c(Cl)c1C(c1ncccc1F)=N[C@H]2C : criterion met
5. CCOC1CN(C(=O)c2cn3c(n2)[C@H](C)N=C(c2ncccc2F)c2c-3ccc(C(F)(F)F)c2Cl)C1 : criterion met
6. COC1CN(C(=O)c2nc3n(n2)-c2ccc(Cl)c(Cl)c2C(c2ncccc2F)=N[C@H]3C)C1 : criterion not met
7. C[C@@H]1N=C(c2ncccc2F)c2c(ccc(C(F)(F)F)c2Cl)-n2nc(N3CCOC3=O)nc21 : criterion met

---

Recorded pKi values for a group of molecules are listed next.
# experimental.target: human GABAA α1β3γ2 receptor (Homo sapiens (Human), UniProt P14867+P18507)
# procedure.summary: Radioligand binding assay for γ2-containing GABAA subtypes, [3H]Flumazenil competition (α1β3γ2)
# Procedure: The affinity of compounds at GABAA γ2 subunit-containing receptors was measured by competition for [^3H]Flumazenil (81.1 Ci/mmol; Roche) binding to HEK293F cells expressing human (transiently transfected) receptors of composition α1β3γ2. Harvested pellets from HEK293F cells expressing the different GABAA γ2 receptor subtypes were resuspended in Mannitol Buffer pH 7.2-7.4 and processed as described above for the cells expressing the GABAA γ1 subunit-containing receptors. […]
pKi: −log10 of the molar value.
parameter: pKi

1) C[C@@H]1N=C(c2ncccc2F)c2c(ccc(Cl)c2Cl)-n2nc(C(=O)NC3CC3)nc21 [Example 88] : 5.55
2) C[C@@H]1N=C(c2ncccc2F)c2c(ccc(Cl)c2Cl)-n2nc(C(=O)N3CCC3)nc21 [Example 42] : 5.58
3) COC1CN(C(=O)c2nc3n(n2)-c2ccc(C(F)(F)F)c(Cl)c2C(c2c(F)cccc2F)=NC3)C1 [Example 37] : 6.11
4) COC1CN(C(=O)c2cn3c(n2)CN=C(c2c(F)cccc2F)c2c-3ccc(Cl)c2Cl)C1 [Example 2] : 6.59
5) C[C@@H]1N=C(c2ncccc2F)c2c(ccc(Cl)c2Cl)-n2nc(C(=O)N3CC4(CCO4)C3)nc21 [Example 98] : 5.09
6) C[C@@H]1N=C(c2ncccc2F)c2c(ccc(Cl)c2Cl)-n2nc(C(=O)N3CC[C@H](F)C3)nc21 [Example 79] : 5.43
7) C[C@@H]1N=C(c2ncccc2F)c2c(ccc(C(F)(F)F)c2Cl)-n2cc(CO)nc21 [Example 153] : 5.22
8) C[C@@H]1N=C(c2c(F)cccc2F)c2c(ccc(C(F)(F)F)c2Cl)-n2nc(NC(=O)N3C4CC3CS(=O)(=O)C4)nc21 (single isomer, unassigned) [Example 134] : 5.83
9) Cc1cnc2n1-c1ccc(C(F)(F)F)c(Cl)c1C(c1c(F)cccc1F)=N[C@H]2C [Example 115] : 6.08
10) Cc1nnc(-c2nc3n(n2)-c2ccc(C(F)(F)F)c(Cl)c2C(c2ncccc2F)=N[C@H]3C)o1 [Example 144] : 4.87
11) Cc1nc2n(n1)-c1ccc(Cl)c(Cl)c1C(c1c(F)cccc1F)=NC2 [Example 32] : 6.79
12) C[C@@H]1N=C(c2c(F)cccc2F)c2c(ccc(Cl)c2Cl)-n2nc(C(=O)NCCF)nc21 [Example 30] : 6.18
13) C[C@@H]1N=C(c2c(F)cccc2F)c2c(ccc(Cl)c2Cl)-n2nc(C(=O)N3CC[C@@H](F)C3)nc21 [Example 76] : 6.01
14) COC1CN(C(=O)Nc2nc3n(n2)-c2ccc(C(F)(F)F)c(Cl)c2C(c2c(F)cccc2F)=N[C@H]3C)C1 [Example 127] : 5.32
15) COCc1cn2c(n1)CN=C(c1c(F)cccc1F)c1c-2ccc(Cl)c1Cl [Example 5] : 6.51

---

# experimental.target: human GABAA α1β3γ2 receptor (Homo sapiens (Human), UniProt P14867+P18507)
# procedure.summary: Radioligand binding assay for γ2-containing GABAA subtypes, [3H]Flumazenil competition (α1β3γ2)
# particulars: Ki α1β3γ2 (nM)/Ki α2β2γ1 (nM)
Response field label: string, one of TRUE (γ2/γ1 Selectivity Ratio strictly below 200) or FALSE.

1. C[C@@H]1N=C(c2c(F)cccc2F)c2c(ccc(Cl)c2Cl)-n2nc(C(=O)N3CC4(CCOCC4)C3)nc21 [Example 99] : FALSE
2. C[C@@H]1N=C(c2c(F)cccc2F)c2c(ccc(Cl)c2Cl)-n2nc(C(=O)NC3(C#N)CC3)nc21 [Example 61] : TRUE
3. C[C@@H]1N=C(c2c(F)cccc2F)c2c(ccc(Cl)c2Cl)-n2nc(C(=O)N3CC[C@H](O)C3)nc21 [Example 43] : TRUE
4. CCNC(=O)c1nc2n(n1)-c1ccc(Cl)c(Cl)c1C(c1c(F)cccc1F)=N[C@H]2C [Example 64] : TRUE
5. COC1CN(C(=O)Nc2nc3n(n2)-c2ccc(Cl)c(Cl)c2C(c2c(F)cccc2F)=N[C@H]3C)C1 [Example 60] : TRUE
6. C[C@@H]1N=C(c2ncccc2F)c2c(ccc(C(F)(F)F)c2Cl)-n2nc(C(=O)N3CC4(COC4)C3)nc21 [Example 112] : FALSE
7. C[C@@H]1N=C(c2c(F)cccc2F)c2c(ccc(C(F)(F)F)c2Cl)-n2nc(C(=O)N3CC(C(F)F)C3)nc21 [Example 122] : FALSE
